This collection of values is drawn from patent US20230312550A1.

Listed here: molecules with reported IC50 for human Fibroblast activation protein alpha (hFAP) (Homo sapiens (Human), UniProt Q12884).
Property Measured: IC50 (nM)

>>> reported_measurement("N#C[C@@H]1CSCN1C(=O)CNC(=O)c1ccnc2ccc(N3CCC4(CC3)COC4)cc12 [Example 229]")
0.091
>>> reported_measurement("N#C[C@@H]1CSCN1C(=O)CNC(=O)c1ccnc2ccc(N3CC(F)(C4CC4)C3)cc12 [Example 31]")
0.1
>>> reported_measurement("N#C[C@@H]1CSCN1C(=O)CNC(=O)c1ccnc2ccc(N3CCCC[C@@H](F)C3)cc12 [Example 59]")
0.061
>>> reported_measurement("CC1CC2(C1)CN(c1ccc3nccc(C(=O)NCC(=O)N4CSC[C@H]4C#N)c3c1)C2 [Example 149]")
0.097
>>> reported_measurement("Cc1cc2nccc(C(=O)NCC(=O)N3CSC[C@H]3C#N)c2cc1N1CCOCC1 [Example 10]")
0.054
>>> reported_measurement("Cc1cc(C(F)(F)F)nn1-c1ccc2nccc(C(=O)NCC(=O)N3CSC[C@H]3C#N)c2c1 [Example 116]")
0.16
>>> reported_measurement("CC1(CF)CCN(c2ccc3nccc(C(=O)NCC(=O)N4CSC[C@H]4C#N)c3c2)CC1 [Example 37]")
0.19
>>> reported_measurement("N#C[C@@H]1CSCN1C(=O)CNC(=O)c1ccnc2ccc(N3CC4CC(C3)O4)cc12 [Example 77]")
0.051
>>> reported_measurement("N#C[C@@H]1CSCN1C(=O)CNC(=O)c1ccnc2ccc(N3CC4C(C3)C4(F)F)cc12 (stereo partly shown) [Example 160]")
0.05
>>> reported_measurement("N#C[C@@H]1CSCN1C(=O)CNC(=O)c1ccnc2ccc(N3CCC(F)(c4ccccc4)CC3)cc12 [Example 223]")
0.076
>>> reported_measurement("CC1(C2CC2)CN(c2ccc3nccc(C(=O)NCC(=O)N4CSC[C@H]4C#N)c3c2)C1 [Example 134]")
0.13
>>> reported_measurement("CC1(O)CN(c2ccc3nccc(C(=O)NCC(=O)N4CSC[C@H]4C#N)c3c2)C1 [Example 165]")
0.32
>>> reported_measurement("C[C@@H]1CCN(c2ccc3nccc(C(=O)NCC(=O)N4CSC[C@H]4C#N)c3c2)CCO1 [Example 61]")
0.06
>>> reported_measurement("N#C[C@@H]1CSCN1C(=O)CNC(=O)c1ccnc2ccc(N3CCC4(CCOCC4)CC3)cc12 [Example 162]")
0.053
>>> reported_measurement("N#C[C@@H]1CSCN1C(=O)CNC(=O)c1ccnc2ccc(N3CC(F)(F)C3)cc12 [Example 23]")
0.2
>>> reported_measurement("C[C@@H]1CCCN1c1ccc2nccc(C(=O)NCC(=O)N3CSC[C@H]3C#N)c2c1 [Example 211]")
0.1
